Target: T1, human galectin-10-His (recombinant human galectin-10 with TEV-cleavable N-terminal His-tag) (human)
T1 construct: SEC-MALLS: dimer in solution; also called Gal10-His; humanGal10-His
T1 chain: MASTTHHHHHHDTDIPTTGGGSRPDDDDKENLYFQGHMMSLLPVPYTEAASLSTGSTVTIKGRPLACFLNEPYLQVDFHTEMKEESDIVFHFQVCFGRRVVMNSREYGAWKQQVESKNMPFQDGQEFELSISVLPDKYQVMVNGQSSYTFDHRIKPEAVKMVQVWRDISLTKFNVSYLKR
Experiment: BLI Octet RED96, galectin-10-His on anti-Penta-His tips, scFv periplasmic extract 1/10
observed_property: koff (s⁻¹)
Please state the figure in s⁻¹; there is no need to write the unit.

binder: scFv 6B06 (periplasmic extract, Myc-tagged) (scFv, not shown: small tags and cut ends) scFv: QVQRQESGPGLVKPSQTLSLTCTVSGGSITTNYYSWSWIRQPPGKGLEWIGYIAYSGSTSYSPSLKSRTSISRDTSNNQFSLQLSSVTPEDTAVYYCARSRSSPTTFGMDYWGKGTLVTVSSGGGGSGGGGSGGGGSSSALTQPSAVSVSLGQTARITCQGGNFGRYYVSWYTQKPGQAPVLVIYQDSERPTGIPERFSGSSSGDTATLTISGAQAEDEADYYCQSGTSSDNIVFGGGTHLTVL
koff (s⁻¹): 0.0058
//
binder: scFv 6F06 (periplasmic extract, Myc-tagged) (scFv, not shown: small tags and cut ends) scFv: QVQLVESGGGLVQPGGSLRLSCAASEFTFSRYSMSWVRQAPGKGLEWVSTINSGGGSTSYVDSVKGRFTISRDNAKNTLYLQMNSLKPEDTAVYYCTKSQGGISFSTQYGMDYWGKGTLVTVSSGGGGSGGGGSGGGGSNFMLTQPSAVSVSLGQTARITCQGGNFGRYYANWYQQKPGQAPVLVIYKDSERPSGIPERFSGSSSGDTATLTISGAQAEDESDYYCQSGSVSDNAVFGGGTHLAVL
koff (s⁻¹): 0.0057
//
binder: scFv 2F09 (periplasmic extract, Myc-tagged) (scFv, not shown: small tags and cut ends) scFv: QVQVQESGPGLVKPSQTLSLTCTVSGGSITTNYFYWSWIRQSPGKGLEWIGAIAYSGRTYYSPSLKSRTSISRDTSNNQFTLQLSSVTPEDTAVYYCARGPKGLASYYDYWGQGTQVTVSSGGGGSGGGGSGGGGSSSALTQPSAVSVSLGQTARITCQGGNFGYYYVSWYQQKPGQAPVLVIYRDSGRPSGIPERFSGSSSGDTATLTISGAQAEDEADYYCQSGSSSDNTVFGGGTHLTVL
koff (s⁻¹): 0.0099

Query block: Return reported koff; argument: scFv 1C09 (periplasmic extract, Myc-tagged) (scFv, not shown: small tags and cut ends, also called 1C9) scFv: QVQLVESGPGLVKPSQTLSLTCTVSGGSITTNSYYWSWIRQPPGKGLEWMGAIAYSGSTYYSPSLKSRTSISRDTSKNQFTLHLSSVTPEDTAVYYCARRPNWYRALDAWGQGTLVTVSSGGGGSGGGGSGGGGSNFMLTQPSAVSVSLGQTARITCQGANLGRYYGIWYQQKPGQAPVQVIYGDSNRPSGIPERFSGSSSGGTATLTISGAQAEDEADYYCQSYESSTSPVFGGGTHLTVL
Result block: 0.0014

Cited source: patent US20190367619A1
